FYI, the data here is from PubChem BioAssay (NCI).

- System: U251 CNS
- Assay Info: NCI tumour cell line growth inhibition, 48 h
Where a SMILES comes first, the peptide text is derived from it. The star is where a group is joined. Cbz = O=C(OCc1ccccc1)*
Quantity Name: TGI

[[record]]
compound = "CCOC(=O)CCC(NC(=O)C(CC(=O)OC)NC(=O)OCc1ccccc1)C(=O)NC(CC(=O)OC)C(=O)NC(CCC(=O)OCC)C(=O)NC(CC(=O)OC)C(=O)NC(CCC(=O)OCC)C(=O)NC(CC(=O)OCC)C(=O)OCC (stereo not drawn) (Cbz-D(OMe)E(OEt)D(OMe)E(OEt)D(OMe)E(OEt)D(OEt)-OEt; configuration not given here)"
experimental_result = "> 100 µM"

[[record]]
compound = "COc1cc(OC)c(-n2[nH]c(=O)n(C)c2=O)c(OC)c1"
experimental_result = "> 100 µM"


Q. Reported TGI, compound "Cn1c2ccccc2n2c(=O)c(-c3ccc(Cl)cc3)nnc12" : ____
A. > 100 µM
